Literature roundup of Alpha-glucosidase MAL12 (Saccharomyces cerevisiae S288c) data, read-out IC50.

INSERT INTO measurements (compound, system_under_test, result) VALUES
  ('COc1cc(CNC[C@@H]2O[C@H](CO)[C@@H](O)[C@H](O)[C@H]2O)ccc1O', 'Alpha-glucosidase MAL12 (Saccharomyces cerevisiae S288c)', '377 µM'),
  ('COc1ccc(CNC[C@@H]2O[C@H](CO)[C@@H](O)[C@H](O)[C@H]2O)c(OC)c1', 'Alpha-glucosidase MAL12 (Saccharomyces cerevisiae S288c)', '622 µM'),
  ('O=C(Cn1cc(Cn2c(-c3ccc(Br)cc3)nc(-c3ccccc3)c2-c2ccccc2)nn1)Nc1ccc(F)cc1', 'Alpha-glucosidase MAL12 (Saccharomyces cerevisiae S288c)', '22 µM'),
  ('C/C(=C\CC[C@@H](C)[C@H]1CC[C@@]2(C)C3=C([C@@H](O)C[C@]12C)[C@@]1(C)CCC(=O)C(C)(C)[C@@H]1CC3=O)C(=O)O', 'Alpha-glucosidase MAL12 (Saccharomyces cerevisiae S288c)', '119 µM'),
  ('CCCCC1C(C(=O)OCC)=C(C)NC(C)=C1C(=O)OCC', 'Alpha-glucosidase MAL12 (Saccharomyces cerevisiae S288c)', '122 µM'),
  ('O=C(NC[C@@H]1O[C@H](CO)[C@@H](O)[C@H](O)[C@H]1O)c1ccco1', 'Alpha-glucosidase MAL12 (Saccharomyces cerevisiae S288c)', '534 µM');

Return reported IC50 for target or system Alpha-glucosidase MAL12 (Saccharomyces cerevisiae S288c), item `COC(=O)c1ccc(-c2nc(-c3ccccc3)c(-c3ccccc3)n2Cc2cn(CC(=O)Nc3cc(Cl)ccc3Cl)nn2)cc1` .
20.2 µM

Enter measured IC50, system Alpha-glucosidase MAL12 (Saccharomyces cerevisiae S288c), for the compound shown: `Cc1ccccc1NC(=O)Cn1cc(Cn2c(-c3cccc(F)c3)nc(-c3ccccc3)c2-c2ccccc2)nn1`
32.1 µM

Give the observed IC50 of `O=C(NC[C@@H]1O[C@H](CO)[C@@H](O)[C@H](O)[C@H]1O)c1ccc(Cl)cc1Cl` for Alpha-glucosidase MAL12 (Saccharomyces cerevisiae S288c).
466 µM

Give measured IC50 for `COc1ccccc1C(=O)NC[C@@H]1O[C@H](CO)[C@@H](O)[C@H](O)[C@H]1O` (Alpha-glucosidase MAL12 (Saccharomyces cerevisiae S288c)).
471 µM

Please tell me the measured IC50 for COC(=O)CC1c2c(ccc3c2C(=O)C(=O)N3C)-c2ccccc2N1C(=O)c1ccccc1 (stereo not drawn) ; system: Alpha-glucosidase MAL12 (Saccharomyces cerevisiae S288c).
Sequence (P53341 whole entry): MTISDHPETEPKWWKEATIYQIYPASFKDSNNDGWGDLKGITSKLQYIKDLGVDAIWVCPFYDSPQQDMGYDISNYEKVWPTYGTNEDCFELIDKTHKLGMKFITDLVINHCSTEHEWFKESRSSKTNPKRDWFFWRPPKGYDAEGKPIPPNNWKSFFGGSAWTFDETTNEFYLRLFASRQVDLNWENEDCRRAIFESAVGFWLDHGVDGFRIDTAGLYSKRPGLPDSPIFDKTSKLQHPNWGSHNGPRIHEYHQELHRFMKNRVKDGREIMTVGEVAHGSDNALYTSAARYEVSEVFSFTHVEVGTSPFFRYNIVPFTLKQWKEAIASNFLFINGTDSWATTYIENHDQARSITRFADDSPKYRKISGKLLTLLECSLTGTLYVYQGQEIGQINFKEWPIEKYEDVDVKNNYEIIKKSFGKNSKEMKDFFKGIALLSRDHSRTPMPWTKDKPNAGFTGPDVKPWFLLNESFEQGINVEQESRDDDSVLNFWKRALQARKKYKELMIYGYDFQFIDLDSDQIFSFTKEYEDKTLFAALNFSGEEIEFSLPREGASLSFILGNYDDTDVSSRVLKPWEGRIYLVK
150 µM

Name the recorded IC50 of COC(=O)CC1Nc2ccccc2-c2ccc3c(c21)C(=O)C(=O)N3Cc1ccc(OC)cc1 (stereo not drawn) , assay system Alpha-glucosidase MAL12 (Saccharomyces cerevisiae S288c).
45.3 µM

Give IC50 for this entry on Alpha-glucosidase MAL12 (Saccharomyces cerevisiae S288c): O=C(O)CC1Oc2ccccc2-c2ccc3c(c21)C(=O)C(=O)N3Cc1ccc(C(F)(F)F)cc1 (stereo not drawn)
4.8 µM
